Molecular target: human V1a receptor (Homo sapiens)
Construct: expressed in transfected cells; host or cells: HEK293 cells, transiently transfected; cell membranes prepared
Sequence (P37288 whole entry): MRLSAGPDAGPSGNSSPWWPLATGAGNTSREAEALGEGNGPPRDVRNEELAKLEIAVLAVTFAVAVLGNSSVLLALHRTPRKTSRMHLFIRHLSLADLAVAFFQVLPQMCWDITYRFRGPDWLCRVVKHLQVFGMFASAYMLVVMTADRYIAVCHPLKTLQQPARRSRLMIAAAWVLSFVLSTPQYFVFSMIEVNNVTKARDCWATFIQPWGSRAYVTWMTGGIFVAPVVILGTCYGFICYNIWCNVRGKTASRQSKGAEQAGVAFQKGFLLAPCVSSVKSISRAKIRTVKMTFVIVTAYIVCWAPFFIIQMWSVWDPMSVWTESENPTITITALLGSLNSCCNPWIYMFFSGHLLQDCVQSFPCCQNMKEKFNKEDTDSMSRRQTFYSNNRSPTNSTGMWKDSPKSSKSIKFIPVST
Assay: human V1a receptor binding study (3H-Vasopressin, SPA beads, HEK293 membranes)
Conditions: membranes of HEK293 cells transiently transfected with human V1a receptor; 3H-Vasopressin; Ki calculated using the Cheng-Prussoff equation; read-out: pKi (hV1a) (converted)
Counter-ions that a name gives are not always drawn.

{"Molecule": "COC[C@@H](C)O[C@H]1CC[C@H](c2nnc3n2-c2ccc(Cl)cc2CN(C)C3)CC1 (stereo in doubt)", "System Name": "human V1a receptor (Homo sapiens)", "Ki [nM]": 5.5}
{"Molecule": "CCC(C)O[C@H]1CC[C@H](c2nnc3n2-c2ccc(Cl)cc2CNC3)CC1 (mixture of isomers) [Example 26, hydrochloride]", "System Name": "human V1a receptor (Homo sapiens)", "Ki [nM]": 12.6}
{"Molecule": "CCO[C@H]1CC[C@H](c2nnc3n2-c2ccc(Cl)cc2CN(C(=O)OC(C)(C)C)C3)CC1", "System Name": "human V1a receptor (Homo sapiens)", "Ki [nM]": 2.4}
{"Molecule": "CC[C@H](C)O[C@H]1CC[C@H](c2nnc3n2-c2ccc(Cl)cc2CN(C)C3)CC1 (single isomer, unassigned)", "System Name": "human V1a receptor (Homo sapiens)", "Ki [nM]": 1.58}
